assay: Metabolic stability assessed as half life in rat liver microsomes; assay type: ADME, Microsome
Measured parameter: half-life

What value of half-life has been recorded for this entry: CNCCC1CCC(CCc2cc(F)ccc2OC)O1 (stereo unspecified)
2.15 h

----------
The following compounds are shown together with reported IC50 values.
target: UniProtKB P31645; experiment: Inhibition of [3H]serotonin reuptake at human SERT expressed in HEK cells
Sequence (P31645 whole entry): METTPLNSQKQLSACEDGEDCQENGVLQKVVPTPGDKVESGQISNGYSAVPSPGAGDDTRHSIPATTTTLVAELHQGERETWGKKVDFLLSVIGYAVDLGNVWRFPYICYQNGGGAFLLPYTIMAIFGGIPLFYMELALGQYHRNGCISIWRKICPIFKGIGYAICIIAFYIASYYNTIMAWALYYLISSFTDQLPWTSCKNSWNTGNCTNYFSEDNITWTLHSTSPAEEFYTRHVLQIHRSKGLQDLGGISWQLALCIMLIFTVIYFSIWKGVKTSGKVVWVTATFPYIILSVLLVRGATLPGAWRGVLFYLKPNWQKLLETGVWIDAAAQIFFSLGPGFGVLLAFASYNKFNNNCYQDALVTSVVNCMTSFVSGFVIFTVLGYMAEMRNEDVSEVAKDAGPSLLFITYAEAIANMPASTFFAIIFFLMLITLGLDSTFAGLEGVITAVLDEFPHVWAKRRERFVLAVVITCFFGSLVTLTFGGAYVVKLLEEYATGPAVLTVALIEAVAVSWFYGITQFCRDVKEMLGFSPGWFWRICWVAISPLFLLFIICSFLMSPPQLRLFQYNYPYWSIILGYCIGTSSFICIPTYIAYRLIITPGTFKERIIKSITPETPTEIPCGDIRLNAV
Value expressed in nM; do not type the unit.

compound="COc1ccc(F)cc1CCC[C@H]1CC[C@H](CN)O1 (relative stereo)" tgt="UniProtKB P31645" measured_parameter=IC50 test_value=2.1
compound="NCC1CCC(CCc2cccnc2)O1 (stereo unspecified)" tgt="UniProtKB P31645" measured_parameter=IC50 test_value=2720
compound="NCC1CCC(c2ccc3ccccc3c2)O1 (stereo unspecified)" tgt="UniProtKB P31645" measured_parameter=IC50 test_value=4
compound="COc1ccc(F)cc1CCC[C@@H]1CC[C@H](CN)O1 (relative stereo)" tgt="UniProtKB P31645" measured_parameter=IC50 test_value=2.6

Next compound, IC50 to be filled in.
What value of IC50 has been recorded for this entry: COc1ccc(F)cc1CCCC[C@H]1CC[C@H](CN)O1 (relative stereo)
84

----------
This document collects pKi values reported for Sodium-dependent dopamine transporter (Homo sapiens).
Recall that pKi is obtained by taking minus log10 of the concentration measured in molar.

molecule="COc1ccc(F)cc1CCCC[C@H]1CC[C@H](CN)O1 (relative stereo)" measured_parameter=pKi test_value=5.41

What value of pKi on Sodium-dependent dopamine transporter (Homo sapiens) does COc1ccc(F)cc1[C@H]1CC[C@H](CCN)O1 have?
4.48

What value of pKi on Sodium-dependent dopamine transporter (Homo sapiens) does COc1ccc(F)cc1CC[C@H]1CC[C@H](CN)O1 have?
4.84

What value of pKi on Sodium-dependent dopamine transporter (Homo sapiens) does COc1ccc(F)cc1CCC[C@@H]1CC[C@H](CN)O1 (relative stereo) have?
5.34

----------
The following compounds are shown together with reported Ki values.
target: UniProt P31645
Value expressed in nM; do not type the unit.

// known answers, use as guide
compound="COc1ccc(F)cc1CCCC[C@H]1CC[C@H](CN)O1 (relative stereo)" test_value=4
compound="COc1ccc(F)cc1CCC[C@@H]1CC[C@H](CN)O1 (relative stereo)" test_value=2.8

Next compound, Ki to be filled in.
What value of Ki on UniProt P31645 does COc1ccc(F)cc1CCC[C@H]1CC[C@H](CN)O1 (relative stereo) have?
0.8

----------
The following molecules are shown together with reported pIC50 values.
target: Sodium-dependent noradrenaline transporter (Homo sapiens); experiment: Inhibition of [3H]norepinephrine reuptake at human NET expressed in HEK cells
Sequence (P23975 whole entry): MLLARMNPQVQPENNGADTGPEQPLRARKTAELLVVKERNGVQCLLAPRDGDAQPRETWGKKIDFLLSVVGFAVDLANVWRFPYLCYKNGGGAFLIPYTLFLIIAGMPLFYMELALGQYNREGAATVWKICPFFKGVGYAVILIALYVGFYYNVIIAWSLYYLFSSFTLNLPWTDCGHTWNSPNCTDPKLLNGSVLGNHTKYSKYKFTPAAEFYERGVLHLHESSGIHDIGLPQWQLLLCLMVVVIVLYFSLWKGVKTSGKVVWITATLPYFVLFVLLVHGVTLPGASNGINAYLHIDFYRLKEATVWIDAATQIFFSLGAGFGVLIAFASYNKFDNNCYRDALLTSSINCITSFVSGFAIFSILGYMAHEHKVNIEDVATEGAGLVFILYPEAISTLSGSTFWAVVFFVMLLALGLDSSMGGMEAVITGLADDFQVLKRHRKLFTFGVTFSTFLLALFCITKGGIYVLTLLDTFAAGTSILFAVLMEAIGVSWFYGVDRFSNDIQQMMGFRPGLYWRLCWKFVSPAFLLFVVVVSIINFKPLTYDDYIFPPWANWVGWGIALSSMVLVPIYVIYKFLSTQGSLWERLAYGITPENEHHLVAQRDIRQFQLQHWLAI
Recall that pIC50 is obtained by taking minus log10 of the concentration measured in molar.

molecule="COc1ccc(F)cc1C[C@H]1CC[C@H](CCN)O1 (relative stereo)" test_value=5.75

Next molecule, pIC50 to be filled in.
What value of pIC50 has been recorded for this entry: COc1ccc(F)cc1C[C@@H]1CC[C@H](CCN)O1 (relative stereo)
5.73

----------
target: UniProt:Q01959; assay: Inhibition of [3H]dopamine reuptake at human DAT expressed in HEK cells
# note: exactly 8 µM is not below, so it is 0 (no); use 1 (yes) for IC50 strictly under it

Worked set:
molecule="COc1ccc(F)cc1[C@@H]1CC[C@H](CCN)O1 (relative stereo)" category="0 (no)"
molecule="COc1ccc(F)cc1CCC[C@@H]1CC[C@H](CN)O1 (relative stereo)" category="1 (yes)"
molecule="COc1ccc(F)cc1C[C@H]1CC[C@H](CN)O1 (relative stereo)" category="0 (no)"
molecule="COc1ccc(F)cc1C[C@@H]1CC[C@H](CN)O1 (relative stereo)" category="0 (no)"
molecule=COc1ccc(F)cc1[C@H]1CC[C@H](CCN)O1 category="0 (no)"

Quick check: IC50 of COc1ccc(F)cc1C1CCC(CN)O1 (configuration not stated) under 8 µM?
0 (no)

Quick check: IC50 of NCC1CCC(CCc2cccc3ccccc23)O1 (configuration not stated) under 8 µM?
0 (no)

Quick check: IC50 of COc1ccc(F)cc1[C@H]1CC[C@H](CN)O1 (relative stereo) under 8 µM?
0 (no)

Quick check: IC50 of COc1ccc(F)cc1CCCC[C@H]1CC[C@H](CN)O1 (relative stereo) under 8 µM?
0 (no)

Quick check: IC50 of NCC1CCC(CCc2cccnc2)O1 (configuration not stated) under 8 µM?
0 (no)

Quick check: IC50 of COc1ccc(F)cc1CCC[C@H]1CC[C@H](CN)O1 (relative stereo) under 8 µM?
1 (yes)

Quick check: IC50 of NCCC1CCC(c2ccco2)O1 (configuration not stated) under 8 µM?
0 (no)
